Target: mTLR7 (Mus musculus, UniProt P58681)
Sequence (P58681 27-1050): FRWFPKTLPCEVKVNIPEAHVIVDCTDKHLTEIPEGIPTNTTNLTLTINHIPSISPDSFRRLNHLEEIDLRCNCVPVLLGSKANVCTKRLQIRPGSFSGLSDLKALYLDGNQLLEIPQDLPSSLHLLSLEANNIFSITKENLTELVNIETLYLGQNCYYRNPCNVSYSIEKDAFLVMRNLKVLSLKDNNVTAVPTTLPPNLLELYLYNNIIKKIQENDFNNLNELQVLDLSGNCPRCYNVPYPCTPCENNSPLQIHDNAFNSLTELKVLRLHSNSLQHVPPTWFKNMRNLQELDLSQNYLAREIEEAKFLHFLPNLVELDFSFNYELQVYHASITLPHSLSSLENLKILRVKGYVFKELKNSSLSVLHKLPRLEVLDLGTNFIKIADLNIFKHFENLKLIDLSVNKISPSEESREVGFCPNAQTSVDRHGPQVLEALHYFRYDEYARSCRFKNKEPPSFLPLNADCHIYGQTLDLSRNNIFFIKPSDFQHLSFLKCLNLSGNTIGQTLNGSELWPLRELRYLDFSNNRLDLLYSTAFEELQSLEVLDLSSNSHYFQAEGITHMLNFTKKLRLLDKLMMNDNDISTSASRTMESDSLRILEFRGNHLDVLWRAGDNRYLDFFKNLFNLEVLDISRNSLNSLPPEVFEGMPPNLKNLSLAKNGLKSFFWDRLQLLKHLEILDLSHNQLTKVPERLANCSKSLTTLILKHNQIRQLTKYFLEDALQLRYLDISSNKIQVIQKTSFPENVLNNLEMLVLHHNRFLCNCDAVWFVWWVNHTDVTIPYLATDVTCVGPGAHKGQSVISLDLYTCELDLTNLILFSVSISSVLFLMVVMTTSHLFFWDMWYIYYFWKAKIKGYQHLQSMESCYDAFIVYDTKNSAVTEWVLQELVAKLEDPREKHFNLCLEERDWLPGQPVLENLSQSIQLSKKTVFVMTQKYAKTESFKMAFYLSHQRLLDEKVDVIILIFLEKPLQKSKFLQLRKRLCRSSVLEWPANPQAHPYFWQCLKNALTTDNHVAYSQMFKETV
Assay: Reporter Gene Assay (RGA), HEK-Blue mTLR7 reporter cells, SEAP readout
Settings: overnight incubation, SEAP absorbance 620 nm
Decision: EC50 beneath 0.03 µM gives yes (1); EC50 meeting or exceeding 0.03 µM gives no (0).

Field: below-cutoff. Rule: recorded EC50 strictly less than 0.03 µM. Subject: `CCNCc1ccc(Cn2c(O)nc3c(N)nc(OCC)nc32)c(OC)c1`
no (0)

For `CCOc1nc(N)c2nc(O)n(Cc3ccc(CNCc4ccc(CNCc5ccccc5)cc4)cc3OC)c2n1` , is the recorded EC50 below the cut-off of 0.03 µM?
yes (1)

Does this molecule meet the criterion EC50 < 0.03 µM? `CCOc1nc(N)c2nc(O)n(Cc3ccc(CNCCN4CCSCC4)cc3OC)c2n1`
no (0)

Report whether reported EC50 is lower than 0.03 µM (strictly) for `CCOc1nc(N)c2nc(O)n(Cc3ccc(CNCCCCCO)cc3OC)c2n1`
yes (1)

Quick check: does `CCOc1nc(N)c2nc(O)n(Cc3ccc(CN(CC)CC)cc3OC)c2n1` have EC50 under 0.03 µM?
yes (1)

Below 0.03 µM on EC50? Entry `CCOc1nc(N)c2nc(O)n(Cc3ccc(CNCCCC[C@H](N)C(=O)O)cc3OC)c2n1`
no (0)

Say whether its EC50 is strictly beneath 0.03 µM. Entry: `CCOc1nc(N)c2nc(O)n(Cc3ccc(CNC4CC(F)(F)C4)cc3OC)c2n1`
yes (1)

Does the reported EC50 of the following molecule sit strictly below 0.03 µM? `CCOc1nc(N)c2nc(O)n(Cc3ccc(CNC/C=C/CN)cc3OC)c2n1`
no (0)
